Measured values drawn from patent US20260132182A1 for this set.

# target_entity: T1, human amylin-3 (a) receptor (human, UniProt P30988 25-474; O60896 24-148)
# T1 sequence (looked up) 1: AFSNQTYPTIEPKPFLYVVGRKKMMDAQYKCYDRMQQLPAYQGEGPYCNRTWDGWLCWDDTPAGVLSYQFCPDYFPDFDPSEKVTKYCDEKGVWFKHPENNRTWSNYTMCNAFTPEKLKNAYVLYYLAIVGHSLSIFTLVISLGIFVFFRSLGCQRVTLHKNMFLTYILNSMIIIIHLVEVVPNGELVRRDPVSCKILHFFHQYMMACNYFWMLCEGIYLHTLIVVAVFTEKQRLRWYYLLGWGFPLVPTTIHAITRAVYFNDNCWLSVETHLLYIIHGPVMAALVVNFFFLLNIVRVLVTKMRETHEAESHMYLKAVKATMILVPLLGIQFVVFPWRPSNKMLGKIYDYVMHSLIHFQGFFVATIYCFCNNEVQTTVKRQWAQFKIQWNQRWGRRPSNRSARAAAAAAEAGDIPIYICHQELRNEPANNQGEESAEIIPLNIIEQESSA
# T1 sequence (looked up) 2: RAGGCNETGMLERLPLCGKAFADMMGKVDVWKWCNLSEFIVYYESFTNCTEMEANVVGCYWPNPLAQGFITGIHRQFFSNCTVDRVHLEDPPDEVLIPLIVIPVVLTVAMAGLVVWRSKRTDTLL
# measurement_description: cell-based or functional assay
Starred links: 1 amine or outer side, 2 acyl side, 3 side chain; linkers in the order of their positions; H or OH if unused. Non-standard residues stand in square brackets, D forms with d. Groups on a side chain read outwards from the residue. *: point of attachment. C20 diacid = O=C(O)CCCCCCCCCCCCCCCCCCC(=O)*; C18 diacid = O=C(O)CCCCCCCCCCCCCCCCC(=O)*; C16 diacid = O=C(O)CCCCCCCCCCCCCCC(=O)*; γGlu = O=C(O)[C@H](CCC(=O)[*:2])N[*:1]; Desaminohistidyl = O=C(CCc1c[nH]cn1)*; εLys = N[C@@H](CCCCN[*:1])C(=O)[*:2]; Trx = NC[C@H]1CC[C@H](C(=O)O)CC1; AEEA = NCCOCCOCC(=O)O; Aib = CC(C)(N)C(=O)O
property: Human AmyR3 potency [EC50 (pM)]

# binder, reported_measurement
data = [
    ("Compound 0502 (peptide) peptide: H[Aib]EGTFTSDVSSYLEEQAAREFIAWLVRGRK([AEEA-AEEA-γGlu-C20 diacid])GGGGEASELSTAALGRLSAELHELATLPRTETGSGSP-NH2", "9 pM"),
    ("Compound 0044 (peptide) peptide: H[Aib]EGTFTSDVSSYLEGQAAK([εLys-AEEA-AEEA-γGlu-C18 diacid])EFIAWLVRGRGGGEASELSTAALGRLSAELHELATLPRTETGSGSP-NH2", "9.1 pM"),
    ("Compound 0440 (peptide) peptide: H[Aib]EGTFTSDK([AEEA-AEEA-γGlu-Trx-C20 diacid])SSYLEEQAAREFIEWLVRGRGEASELSTAALGRLSAELHELATLPRTETGSGSP-NH2", "10.4 pM"),
    ("Compound 0127 (peptide) peptide: H[Aib]EGTFTSDVSSYLEEQAARK([AEEA-AEEA-γGlu-C18 diacid])FIAWLVRGK([AEEA-AEEA-γGlu-C18 diacid])GGEASELSTAALGRLSAELHELATLPRTETGSGSP-NH2", "63.9 pM"),
    ("Compound 0254 (peptide) peptide: HWEGTFTSDVSSYLEEQAARK([AEEA-AEEA-γGlu-Trx-C20 diacid])FIEWLVRGRGEGGGGGASELSTAALGRLSAELHELATLPRTETGSGSP-NH2", "7.7 pM"),
    ("Compound 0294 (peptide) peptide: H[Aib]EGTFTSDVSSYLEK([AEEA-AEEA-γGlu-C16 diacid])QAAREFIAWLVRGRGGGGGASELSTAALGRLSK([AEEA-AEEA-γGlu-C16 diacid])ELHELATLPRTETGSGSP-NH2", "34.3 pM"),
    ("Compound 0035 (peptide) peptide: [Desaminohistidyl]AEGTFTSDVSSYLEEQAAREFIAWLVRGRK([AEEA-AEEA-γGlu-Trx-C20 diacid])EASELSTAALGRLSAELHELATLPRTETGSGSP-NH2", "16 pM"),
    ("Compound 0111 (peptide) peptide: H[Aib]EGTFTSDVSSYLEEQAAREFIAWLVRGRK([AEEA-AEEA-γGlu-C18 diacid])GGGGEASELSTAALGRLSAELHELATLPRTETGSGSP-NH2", "11.5 pM"),
]
